Below, each entry is listed alongside its reported T/C.
- Test system: L1210 leukemia ip in BDF1 mice, survival T/C
- method: NCI In Vivo Anticancer Drug Screen. Data for tumor model L1210 Leukemia (intraperitoneal) in B6D2F1 (BDF1) mice
- particulars: endpoint: mean survival time; dose: 200.0 mg/kg/injection; schedule: Q04DX003 (ip); vehicle: saline; higher = longer survival
Toxic doses and inconclusive results are not listed.

{"molecule": "Nc1ccc(NC=O)c(Cl)c1", "T/C": "108 % of control"}
{"molecule": "COc1ccccc1[P+](CO)(c1ccccc1OC)c1ccccc1OC", "T/C": "97 % of control"}
{"molecule": "CN(C)CCCN1c2ccccc2S(=O)c2ccc(Cl)cc21 (centres undefined)", "T/C": "103 % of control"}
{"molecule": "COc1cc(C=C2c3ccccc3-c3ccccc32)ccc1O", "T/C": "91 % of control"}
{"molecule": "OCC1(O)CCC1", "T/C": "103 % of control"}
{"molecule": "OCC1OC(OC2CCCCC2)C(O)C(O)C1O (centres undefined)", "T/C": "96 % of control"}
{"molecule": "N#C/C=C/C1=CCCCC1", "T/C": "97 % of control"}
{"molecule": "OCCSC1=NCCN1", "T/C": "103 % of control"}
{"molecule": "CS(=N)(=O)c1ccccc1 (centres undefined)", "T/C": "100 % of control"}
{"molecule": "CC1(C)COC(Cc2ccccc2)=N1", "T/C": "91 % of control"}
{"molecule": "COc1ccc(OC)c2c(C(O)CNC34CC5CC(CC(C5)C3)C4)cc(-c3ccc(Cl)cc3)nc12 (centres undefined)", "T/C": "92 % of control"}
{"molecule": "COc1ccc(CCN=c2c3ccccc3ccc3ccccc23)cc1OC", "T/C": "97 % of control"}
{"molecule": "Cn1c(=O)oc2ccccc2c1=O", "T/C": "97 % of control"}
{"molecule": "NC(=O)NC(=O)C1C2CC3OC(=O)C1C3C2 (centres undefined)", "T/C": "93 % of control"}
